Source listed as ChEMBL document CHEMBL4834472.

Molecular target: CDK9/cyclin T1 (Homo sapiens, UniProt P50750)
Sequence (O60563 whole entry): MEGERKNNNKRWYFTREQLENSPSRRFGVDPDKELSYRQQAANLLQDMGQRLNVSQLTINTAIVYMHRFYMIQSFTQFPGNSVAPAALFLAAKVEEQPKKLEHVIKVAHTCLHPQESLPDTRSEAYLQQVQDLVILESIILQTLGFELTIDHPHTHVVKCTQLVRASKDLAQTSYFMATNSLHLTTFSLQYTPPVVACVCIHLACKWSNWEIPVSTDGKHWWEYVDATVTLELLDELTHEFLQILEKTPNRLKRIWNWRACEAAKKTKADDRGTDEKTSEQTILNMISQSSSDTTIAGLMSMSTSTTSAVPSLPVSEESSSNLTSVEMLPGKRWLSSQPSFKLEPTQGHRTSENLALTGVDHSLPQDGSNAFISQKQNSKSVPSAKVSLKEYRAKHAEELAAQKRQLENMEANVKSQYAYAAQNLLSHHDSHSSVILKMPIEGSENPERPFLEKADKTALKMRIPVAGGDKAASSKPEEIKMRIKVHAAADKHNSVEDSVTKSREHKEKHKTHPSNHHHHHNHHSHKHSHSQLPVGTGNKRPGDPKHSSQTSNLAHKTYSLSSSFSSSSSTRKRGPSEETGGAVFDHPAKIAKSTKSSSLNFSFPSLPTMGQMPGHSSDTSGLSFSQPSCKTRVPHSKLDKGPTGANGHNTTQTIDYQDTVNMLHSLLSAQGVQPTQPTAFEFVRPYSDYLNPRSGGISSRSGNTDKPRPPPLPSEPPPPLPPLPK
Sequence (P50750 whole entry): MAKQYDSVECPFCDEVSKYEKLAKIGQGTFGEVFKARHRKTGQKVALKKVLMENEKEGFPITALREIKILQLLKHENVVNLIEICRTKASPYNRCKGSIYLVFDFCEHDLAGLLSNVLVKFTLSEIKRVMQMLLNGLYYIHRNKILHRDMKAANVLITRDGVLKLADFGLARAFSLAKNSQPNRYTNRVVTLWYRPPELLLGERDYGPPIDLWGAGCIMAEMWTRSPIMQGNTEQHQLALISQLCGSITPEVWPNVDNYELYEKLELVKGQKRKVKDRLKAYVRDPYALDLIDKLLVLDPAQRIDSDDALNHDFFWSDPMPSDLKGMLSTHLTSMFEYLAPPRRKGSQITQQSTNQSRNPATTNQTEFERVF
Test: Inhibition of CDK9/cyclin T1 (unknown origin) in presence of [32P]gammaATP by image analyser
quantity_measured: IC50

Query: Any idea what its IC50 is? The molecule is Cc1n[nH]c2cc(F)c3nc(-c4c[nH]nc4C(F)(F)F)c4c(c3c12)CCCC4
Response: > 1000 nM

Query: What does the record list as IC50 for Cc1n[nH]c2ccc3nc(-c4c[nH]nc4C(F)(F)F)c4c(c3c12)CCCC4 ?
Response: > 1000 nM

Query: # query: IC50 of entry OCc1n[nH]c2ccc3nc(-c4c[nH]nc4C(F)(F)F)c4c(c3c12)CCCC4
Response: > 1000 nM
